Source listed as patent US8946249B2.

Each item that follows carries a reported pIC50.
target: UniProt:Q12809; assay: hERG whole-cell patch clamp in CHO cells stably transfected with hERG cDNA; conditions: CHO cells expressing hERG, tail current; read-out: hERG current inhibition IC50
Sequence (Q12809 whole entry): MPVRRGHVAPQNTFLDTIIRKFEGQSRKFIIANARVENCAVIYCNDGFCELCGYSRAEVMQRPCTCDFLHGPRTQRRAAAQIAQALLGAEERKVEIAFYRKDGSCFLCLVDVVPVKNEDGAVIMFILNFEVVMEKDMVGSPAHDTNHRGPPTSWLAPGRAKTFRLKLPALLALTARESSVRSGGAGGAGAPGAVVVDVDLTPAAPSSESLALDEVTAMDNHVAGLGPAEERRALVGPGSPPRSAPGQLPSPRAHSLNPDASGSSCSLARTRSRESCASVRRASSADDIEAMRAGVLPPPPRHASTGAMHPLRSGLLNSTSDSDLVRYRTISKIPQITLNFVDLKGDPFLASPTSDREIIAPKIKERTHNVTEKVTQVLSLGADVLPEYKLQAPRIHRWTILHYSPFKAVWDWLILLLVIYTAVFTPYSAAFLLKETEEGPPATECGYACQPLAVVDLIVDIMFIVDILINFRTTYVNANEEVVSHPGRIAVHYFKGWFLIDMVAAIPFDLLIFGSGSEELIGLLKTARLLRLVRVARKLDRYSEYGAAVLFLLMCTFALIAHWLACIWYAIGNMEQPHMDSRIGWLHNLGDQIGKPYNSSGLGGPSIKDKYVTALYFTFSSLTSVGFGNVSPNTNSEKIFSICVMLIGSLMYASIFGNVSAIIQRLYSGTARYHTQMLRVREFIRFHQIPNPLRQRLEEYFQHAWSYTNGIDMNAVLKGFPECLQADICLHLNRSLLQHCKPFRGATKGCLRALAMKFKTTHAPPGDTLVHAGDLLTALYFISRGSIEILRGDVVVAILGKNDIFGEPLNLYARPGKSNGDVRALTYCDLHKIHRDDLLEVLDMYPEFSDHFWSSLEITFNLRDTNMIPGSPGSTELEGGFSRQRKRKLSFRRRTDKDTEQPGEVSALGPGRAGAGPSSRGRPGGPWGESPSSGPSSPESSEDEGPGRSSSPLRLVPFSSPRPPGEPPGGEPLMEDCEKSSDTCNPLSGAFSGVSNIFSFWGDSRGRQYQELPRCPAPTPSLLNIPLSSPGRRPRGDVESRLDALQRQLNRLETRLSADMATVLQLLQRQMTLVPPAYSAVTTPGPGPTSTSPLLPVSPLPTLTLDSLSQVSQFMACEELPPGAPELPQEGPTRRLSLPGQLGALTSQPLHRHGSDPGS
On this scale, pIC50 is minus log10 of a concentration expressed in M (mol/L).

**Q:** Lab note: UniProt:Q12809 assay, enter pIC50 for Cc1cc2c(F)c(Nc3ccnc(Nc4cccc(OCCN5CCOCC5)c4)n3)ccc2[nH]1 [compound of Formula C, reference compound] here
**A:** 6.26

Continuing:
**Q:** Lab note: UniProt:Q12809 assay, enter pIC50 for Cc1cc2cc(Oc3ccnc(Nc4cccc(CS(=O)(=O)NCCN(C)C)c4)n3)ccc2[nH]1 [Compound A] here
**A:** 5.17

---

target: FGFR1 kinase (Homo sapiens)
Sequence (P11362 22-822): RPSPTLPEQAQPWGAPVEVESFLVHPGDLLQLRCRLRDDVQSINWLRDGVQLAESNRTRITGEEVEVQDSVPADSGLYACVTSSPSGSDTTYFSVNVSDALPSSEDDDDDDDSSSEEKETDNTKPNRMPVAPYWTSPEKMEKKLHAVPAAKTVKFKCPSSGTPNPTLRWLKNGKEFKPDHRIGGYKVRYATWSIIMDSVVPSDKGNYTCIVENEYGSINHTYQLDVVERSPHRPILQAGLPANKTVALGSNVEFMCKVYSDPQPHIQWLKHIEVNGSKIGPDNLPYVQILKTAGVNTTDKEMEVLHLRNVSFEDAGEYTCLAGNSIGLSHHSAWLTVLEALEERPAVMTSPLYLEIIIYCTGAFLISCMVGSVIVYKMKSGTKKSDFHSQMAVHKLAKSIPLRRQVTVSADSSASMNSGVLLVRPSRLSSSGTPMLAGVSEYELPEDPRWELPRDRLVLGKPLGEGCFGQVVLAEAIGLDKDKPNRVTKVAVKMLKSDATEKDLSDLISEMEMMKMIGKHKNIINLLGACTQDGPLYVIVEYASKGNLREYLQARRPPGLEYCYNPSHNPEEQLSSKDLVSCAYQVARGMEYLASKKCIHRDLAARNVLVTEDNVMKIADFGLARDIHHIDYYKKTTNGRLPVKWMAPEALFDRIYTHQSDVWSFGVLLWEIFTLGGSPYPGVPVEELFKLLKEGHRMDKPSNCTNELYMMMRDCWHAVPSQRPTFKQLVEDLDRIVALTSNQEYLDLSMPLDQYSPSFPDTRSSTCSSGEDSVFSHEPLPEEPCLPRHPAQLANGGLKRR
quantity: pIC50
On this scale, pIC50 is minus log10 of a concentration expressed in M (mol/L).

**Q:** Lab note: FGFR1 kinase (Homo sapiens) assay, enter pIC50 for "Cc1cc2cc(Oc3ccnc(Nc4cccc(CS(=O)(=O)NCCN(C)C)c4)n3)ccc2[nH]1" here
**A:** 7.28
